# STUDY TARGET: recombinant alpha-glucosidase II (murine full-length glucosidase II, alpha and beta subunits, Glu 2) (Mus musculus, UniProt Q8BHN3)
# Construct: made in house; host or cells: HEK-293T cells transduced with BacMam viruses (75% alpha, 25% beta); protein harvested from culture supernatant
# Sequence (O08795 15-521): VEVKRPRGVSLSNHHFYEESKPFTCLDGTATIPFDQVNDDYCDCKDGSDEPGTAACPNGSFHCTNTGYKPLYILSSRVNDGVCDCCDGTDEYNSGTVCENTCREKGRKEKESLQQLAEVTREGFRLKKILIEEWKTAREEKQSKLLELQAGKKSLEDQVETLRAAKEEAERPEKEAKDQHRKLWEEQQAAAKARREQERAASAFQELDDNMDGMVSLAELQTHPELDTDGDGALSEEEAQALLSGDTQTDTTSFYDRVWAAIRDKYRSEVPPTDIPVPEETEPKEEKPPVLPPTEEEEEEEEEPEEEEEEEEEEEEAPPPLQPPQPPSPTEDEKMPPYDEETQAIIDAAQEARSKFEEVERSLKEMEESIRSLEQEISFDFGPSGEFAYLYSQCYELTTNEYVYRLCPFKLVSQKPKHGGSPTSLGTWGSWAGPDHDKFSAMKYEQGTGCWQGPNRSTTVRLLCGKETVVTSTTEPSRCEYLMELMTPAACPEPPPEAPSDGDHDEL
# Sequence (Q8BHN3 33-944): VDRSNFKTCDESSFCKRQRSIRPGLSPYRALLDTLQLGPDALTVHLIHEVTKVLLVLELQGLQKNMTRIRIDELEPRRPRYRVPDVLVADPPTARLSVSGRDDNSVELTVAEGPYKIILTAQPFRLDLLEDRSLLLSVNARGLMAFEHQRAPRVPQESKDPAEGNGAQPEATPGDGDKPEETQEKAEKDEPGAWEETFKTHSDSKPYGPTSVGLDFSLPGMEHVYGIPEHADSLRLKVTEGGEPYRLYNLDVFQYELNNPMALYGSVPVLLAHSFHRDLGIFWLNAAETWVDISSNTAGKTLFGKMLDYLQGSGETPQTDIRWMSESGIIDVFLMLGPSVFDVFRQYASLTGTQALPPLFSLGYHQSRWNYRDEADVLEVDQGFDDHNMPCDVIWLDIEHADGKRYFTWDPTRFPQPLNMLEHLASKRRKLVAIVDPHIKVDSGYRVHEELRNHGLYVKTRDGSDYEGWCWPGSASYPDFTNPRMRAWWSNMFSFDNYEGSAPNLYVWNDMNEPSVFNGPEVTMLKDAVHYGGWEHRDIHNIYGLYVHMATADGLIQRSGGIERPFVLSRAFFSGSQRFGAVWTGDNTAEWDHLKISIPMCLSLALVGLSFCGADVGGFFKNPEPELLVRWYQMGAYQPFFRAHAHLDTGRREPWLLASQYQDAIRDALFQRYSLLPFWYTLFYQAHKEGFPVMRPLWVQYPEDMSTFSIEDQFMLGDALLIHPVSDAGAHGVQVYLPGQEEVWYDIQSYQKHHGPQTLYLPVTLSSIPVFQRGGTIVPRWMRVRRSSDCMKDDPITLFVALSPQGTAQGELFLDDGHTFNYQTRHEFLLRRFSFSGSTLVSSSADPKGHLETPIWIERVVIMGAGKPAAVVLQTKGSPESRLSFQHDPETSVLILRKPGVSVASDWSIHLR
# MEASUREMENT DESCRIPTION: Alpha-glucosidase II assay (4-methylumbelliferyl-alpha-D-pyranoside substrate, fluorescence)
# Assay type: biochemical
# EXPERIMENTAL CONDITIONS: Glucosidase 2; read-out: Glu2 IC50
# log10 of IC50 listing for each entry below
Scale: log10; quantity: IC50; unit before log: nM

Previously resolved entries follow.
INSERT INTO results (compound, measurement_kind, reported_result) VALUES
  ('CS(=O)(=O)c1cc(NCc2cccc(CN3C[C@H](O)[C@@H](O)[C@H](O)[C@H]3CO)c2)cc(-c2ncccn2)c1', 'log10 of IC50', 3.86),
  ('OC[C@@H]1[C@@H](O)[C@H](O)[C@@H](O)CN1CCc1ccc(CCNc2cc(Cl)cc(-c3noc(C4CCC4)n3)c2)cc1', 'log10 of IC50', 2.47),
  ('[N-]=[N+]=Nc1ccc(NCCn2cc(CCN3C[C@H](O)[C@@H](O)[C@H](O)[C@H]3CO)c3ccccc32)c([N+](=O)[O-])c1', 'log10 of IC50', 1.81),
  ('OC[C@@H]1[C@@H](O)[C@H](O)[C@@H](O)CN1Cc1ccc(CNc2ccc(-c3ncccn3)cc2)cc1', 'log10 of IC50', 3.16),
  ('Cc1cc(CN2CCOCC2)cc(NCc2ccc(CN3C[C@H](O)[C@@H](O)[C@H](O)[C@H]3CO)cc2)c1', 'log10 of IC50', 3.20),
  ('OC[C@@H]1[C@@H](O)[C@H](O)[C@@H](O)CN1Cc1ccc(CNc2ccc(CN3CCCO3)cc2)cc1', 'log10 of IC50', 3.25),
  ('[N-]=[N+]=Nc1ccc(NCC2COC(CN3C[C@H](O)[C@@H](O)[C@H](O)[C@H]3CO)CO2)c([N+](=O)[O-])c1 (stereo partly shown)', 'log10 of IC50', 2.29),
  ('CCCc1nc(-c2cc(Cl)cc(NCCc3ccc(CCN4C[C@H](O)[C@@H](O)[C@H](O)[C@H]4CO)cc3)c2)no1', 'log10 of IC50', 2.52),
  ('CC#Cc1ccc(NCCCCCCN2C[C@H](O)[C@@H](O)[C@H](O)[C@H]2CO)c([N+](=O)[O-])c1', 'log10 of IC50', 0.08),
  ('OC[C@@H]1[C@@H](O)[C@H](O)[C@@H](O)CN1Cc1ccc(CNc2cc(-c3ncccn3)cc(C3CC3)c2)cc1', 'log10 of IC50', 2.18);

Given the entry NC(=O)CCN(CCNc1ccc(-c2ncccn2)cc1[N+](=O)[O-])CCN1C[C@H](O)[C@@H](O)[C@H](O)[C@H]1CO , report its measured log10 of IC50. 3.13

Please do the same for Cc1cc(NCc2ccc(CN3C[C@H](O)[C@@H](O)[C@H](O)[C@H]3CO)cc2)cc(-c2ccc[nH]2)c1 as well. 2.33

----------
# STUDY TARGET: recombinant human GAA (acid alpha-glucosidase) (Homo sapiens, UniProt P10253)
# MEASUREMENT DESCRIPTION: Acid alpha-glucosidase (GAA) assay (4-methylumbelliferyl-alpha-D-pyranoside substrate, fluorescence)
MEASUREMENT KIND: IC50 (nM)
Respond numerically; units are nM and should not be typed.

INSERT INTO assay_data (molecule_smiles, measurement_kind, reading_unit, reported_result) VALUES
  ('Cc1cc(NCc2ccc(CN3C[C@H](O)[C@@H](O)[C@H](O)[C@H]3CO)cc2)cc(-c2ncco2)c1', 'IC50', 'nM', 440),
  ('OC[C@@H]1[C@@H](O)[C@H](O)[C@@H](O)CN1CCc1ccc(CCNc2cc(Cl)cc(C3=CCOCC3)c2)cc1', 'IC50', 'nM', 24);

Given the entry Cc1cc(NCc2cnc(CN3C[C@H](O)[C@@H](O)[C@H](O)[C@H]3CO)cn2)cc(N2CCOCC2)c1 , report its measured IC50. 165

Please do the same for COc1ccc(CCCCCN2C[C@H](O)[C@@H](O)[C@H](O)[C@H]2CO)cc1 as well. 1190

----------
# STUDY TARGET: recombinant human GBA (beta-glucocerebrosidase) (Homo sapiens, UniProt P04062)
# Sequence (P04062 40-536): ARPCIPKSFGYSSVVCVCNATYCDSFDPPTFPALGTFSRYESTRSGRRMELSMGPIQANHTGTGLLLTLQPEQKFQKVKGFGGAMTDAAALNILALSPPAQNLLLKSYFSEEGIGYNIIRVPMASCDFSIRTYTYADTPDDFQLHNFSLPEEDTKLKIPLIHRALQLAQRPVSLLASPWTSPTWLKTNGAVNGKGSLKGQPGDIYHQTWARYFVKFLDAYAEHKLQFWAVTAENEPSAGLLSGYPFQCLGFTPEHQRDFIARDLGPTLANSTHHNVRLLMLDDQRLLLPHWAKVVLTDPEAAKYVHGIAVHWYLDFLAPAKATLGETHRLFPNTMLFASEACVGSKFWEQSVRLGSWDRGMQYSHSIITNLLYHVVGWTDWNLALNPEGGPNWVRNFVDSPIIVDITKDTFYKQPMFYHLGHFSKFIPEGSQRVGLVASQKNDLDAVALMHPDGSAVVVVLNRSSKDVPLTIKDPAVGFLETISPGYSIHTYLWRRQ
# MEASUREMENT DESCRIPTION: Beta-glucocerebrosidase (GBA, glucosylceramidase) assay (4-methylumbelliferyl-beta-D-pyranoside substrate, fluorescence)
MEASUREMENT KIND: IC50 (µM)
Respond numerically; units are µM and should not be typed.

Previously resolved entries follow.
INSERT INTO results (molecule_smiles, reading_unit, reported_result) VALUES
  ('OC[C@@H]1[C@@H](O)[C@H](O)[C@@H](O)CN1CCCCCCNc1ccc(-c2cnccn2)cc1Cl', 'µM', 2.7),
  ('NC(=O)CCN(CCNc1ccc(-c2ncccn2)cc1[N+](=O)[O-])CCN1C[C@H](O)[C@@H](O)[C@H](O)[C@H]1CO', 'µM', 3.21),
  ('O=[N+]([O-])c1cc(-c2cccnn2)ccc1NCc1ccc(CN2C[C@H](O)[C@@H](O)[C@H](O)[C@H]2CO)cc1', 'µM', 32.7);

What value of IC50 on recombinant human GBA (beta-glucocerebrosidase) (Homo sapiens, UniProt P04062) does [N-]=[N+]=Nc1ccc(NCCOC(=O)NCCN2C[C@H](O)[C@@H](O)[C@H](O)[C@H]2CO)c([N+](=O)[O-])c1 have? 1.52

Please do the same for OC[C@@H]1[C@@H](O)[C@H](O)[C@@H](O)CN1Cc1cnc(CNc2cc(-c3ncccn3)cc(C3CC3)c2)cn1 as well. 82.9

Please do the same for O=[N+]([O-])c1cc(-c2ncccn2)ccc1NCCc1ccc(CCN2C[C@H](O)[C@@H](O)[C@H](O)[C@H]2CO)cc1 as well. 1.79

----------
# STUDY TARGET: UniProt P23739
# Sequence (P23739 whole entry): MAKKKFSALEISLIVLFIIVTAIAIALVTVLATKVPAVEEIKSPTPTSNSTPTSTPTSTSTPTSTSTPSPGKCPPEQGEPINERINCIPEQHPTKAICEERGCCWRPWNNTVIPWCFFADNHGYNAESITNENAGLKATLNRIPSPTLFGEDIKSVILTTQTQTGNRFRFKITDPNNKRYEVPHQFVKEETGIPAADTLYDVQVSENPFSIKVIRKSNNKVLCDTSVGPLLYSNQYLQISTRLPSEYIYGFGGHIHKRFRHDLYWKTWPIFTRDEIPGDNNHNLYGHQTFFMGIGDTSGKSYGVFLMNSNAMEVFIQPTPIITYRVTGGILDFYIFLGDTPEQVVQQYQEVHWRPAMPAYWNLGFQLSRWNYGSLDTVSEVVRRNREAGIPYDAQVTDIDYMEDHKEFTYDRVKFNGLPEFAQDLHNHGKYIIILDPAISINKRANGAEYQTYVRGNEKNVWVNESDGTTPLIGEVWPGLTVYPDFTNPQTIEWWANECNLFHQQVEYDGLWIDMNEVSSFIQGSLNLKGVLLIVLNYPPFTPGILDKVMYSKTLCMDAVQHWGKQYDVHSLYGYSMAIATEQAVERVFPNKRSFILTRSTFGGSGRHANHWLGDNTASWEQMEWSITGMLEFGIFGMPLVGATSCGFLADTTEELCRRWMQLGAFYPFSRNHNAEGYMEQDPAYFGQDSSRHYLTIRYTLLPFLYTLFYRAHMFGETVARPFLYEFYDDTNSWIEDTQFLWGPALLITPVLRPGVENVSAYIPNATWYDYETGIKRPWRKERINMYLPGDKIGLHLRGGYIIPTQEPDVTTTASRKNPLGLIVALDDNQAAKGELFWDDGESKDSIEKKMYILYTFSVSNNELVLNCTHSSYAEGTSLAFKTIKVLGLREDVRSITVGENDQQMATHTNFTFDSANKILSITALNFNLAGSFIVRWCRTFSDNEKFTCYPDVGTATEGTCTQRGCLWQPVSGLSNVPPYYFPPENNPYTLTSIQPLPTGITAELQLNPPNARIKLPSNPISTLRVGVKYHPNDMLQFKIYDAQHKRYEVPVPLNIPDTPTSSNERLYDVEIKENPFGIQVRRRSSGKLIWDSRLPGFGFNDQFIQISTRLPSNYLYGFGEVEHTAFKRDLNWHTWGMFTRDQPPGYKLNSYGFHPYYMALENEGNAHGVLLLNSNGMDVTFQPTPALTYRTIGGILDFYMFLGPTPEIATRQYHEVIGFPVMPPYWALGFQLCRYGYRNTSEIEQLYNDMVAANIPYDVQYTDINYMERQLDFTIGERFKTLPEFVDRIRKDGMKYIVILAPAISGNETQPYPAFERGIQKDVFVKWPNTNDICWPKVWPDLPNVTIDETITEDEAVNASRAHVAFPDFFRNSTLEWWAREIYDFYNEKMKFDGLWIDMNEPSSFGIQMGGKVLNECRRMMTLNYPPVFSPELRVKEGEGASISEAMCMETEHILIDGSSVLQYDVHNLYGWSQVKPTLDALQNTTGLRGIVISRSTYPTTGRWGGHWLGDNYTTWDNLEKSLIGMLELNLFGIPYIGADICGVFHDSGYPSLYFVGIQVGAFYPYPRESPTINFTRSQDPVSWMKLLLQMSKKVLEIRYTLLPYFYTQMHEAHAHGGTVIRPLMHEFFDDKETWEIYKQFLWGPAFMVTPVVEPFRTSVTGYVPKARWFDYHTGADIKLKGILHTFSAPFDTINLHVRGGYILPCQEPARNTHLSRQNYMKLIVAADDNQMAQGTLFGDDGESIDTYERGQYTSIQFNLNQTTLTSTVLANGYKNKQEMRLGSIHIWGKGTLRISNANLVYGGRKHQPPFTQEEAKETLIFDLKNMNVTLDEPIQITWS
Field 'label' (enum: t / f). Set to t when IC50 is strictly under 100 nM; else f.

Report whether reported IC50 is lower than 100 nM (strictly) for COc1cc(NCCCCCCN2C[C@H](O)[C@@H](O)[C@H](O)[C@H]2CO)cc(-c2ncccn2)c1 f

Please do the same for OC[C@@H]1[C@@H](O)[C@H](O)[C@@H](O)CN1Cc1cccc(CNc2ccc(-c3ncccn3)cc2)c1 as well. t

Please do the same for Cc1cc(NCc2cccc(CN3C[C@H](O)[C@@H](O)[C@H](O)[C@H]3CO)c2)cc(-c2cccnn2)c1 as well. t

Please do the same for OC[C@@H]1[C@@H](O)[C@H](O)[C@@H](O)CN1CCCCCCNc1cc(C2CC2)cc(N2CCOCC2)c1 as well. f

Please do the same for [N-]=[N+]=Nc1ccc(NCCc2ccc(CCN3C[C@H](O)[C@@H](O)[C@H](O)[C@H]3CO)s2)c([N+](=O)[O-])c1 as well. f

Please do the same for NC(=O)c1cc(-c2ncccn2)ccc1NCCCCCCN1C[C@H](O)[C@@H](O)[C@H](O)[C@H]1CO as well. f

Please do the same for Cc1cc(NCc2ccc(CN3C[C@H](O)[C@@H](O)[C@H](O)[C@H]3CO)cc2)cc(-c2ncco2)c1 as well. t

----------
# STUDY TARGET: recombinant human GAA (acid alpha-glucosidase) (Homo sapiens, UniProt P10253)
# MEASUREMENT DESCRIPTION: Acid alpha-glucosidase (GAA) assay (4-methylumbelliferyl-alpha-D-pyranoside substrate, fluorescence)
MEASUREMENT KIND: log10(IC50) (log10 of the value in nM)
Scale: log10; quantity: IC50; unit before log: nM

Previously resolved entries follow.
INSERT INTO assay_data (molecule_smiles, study_target, measurement_kind, reported_result) VALUES
  ('COc1cc(Br)cc(NCCn2cc(CCN3C[C@H](O)[C@@H](O)[C@H](O)[C@H]3CO)c3ccccc32)c1', 'recombinant human GAA (acid alpha-glucosidase) (Homo sapiens, UniProt P10253)', 'log10(IC50)', 3.57),
  ('Cc1cc(NCc2cccc(CN3C[C@H](O)[C@@H](O)[C@H](O)[C@H]3CO)c2)cc(-c2ccc[nH]2)c1', 'recombinant human GAA (acid alpha-glucosidase) (Homo sapiens, UniProt P10253)', 'log10(IC50)', 3.73);

Given the entry COc1ccc(-c2ccc(CN3C[C@H](O)[C@@H](O)[C@H](O)[C@H]3CO)cc2)cc1 , report its measured log10(IC50). 3.66

----------
# STUDY TARGET: rat maltase (partially purified alpha-glucosidase from intestinal rat powder)
# MEASUREMENT DESCRIPTION: Intestinal alpha-glucosidase assay, maltose substrate (Glucose GO Kit)
# IC50 listing for each entry below
Respond numerically; units are nM and should not be typed.

INSERT INTO measurements (compound, reading_unit, reported_result) VALUES
  ('CS(=O)(=O)c1cc(NCc2ccc(CN3C[C@H](O)[C@@H](O)[C@H](O)[C@H]3CO)cc2)cc(-c2ncccn2)c1 [Compound 1059]', 'nM', 8),
  ('CS(=O)(=O)c1cc(NCc2cccc(CN3C[C@H](O)[C@@H](O)[C@H](O)[C@H]3CO)c2)cc(N2CCOCC2)c1 [Compound 1036]', 'nM', 77);

Given the entry [N-]=[N+]=Nc1ccc(NCCn2cc(CCN3C[C@H](O)[C@@H](O)[C@H](O)[C@H]3CO)nn2)c([N+](=O)[O-])c1 [Compound 1272] , report its measured IC50. 239
